target: acetylcholinesterase (Rattus norvegicus, UniProt P37136)
Sequence (P37136 32-614): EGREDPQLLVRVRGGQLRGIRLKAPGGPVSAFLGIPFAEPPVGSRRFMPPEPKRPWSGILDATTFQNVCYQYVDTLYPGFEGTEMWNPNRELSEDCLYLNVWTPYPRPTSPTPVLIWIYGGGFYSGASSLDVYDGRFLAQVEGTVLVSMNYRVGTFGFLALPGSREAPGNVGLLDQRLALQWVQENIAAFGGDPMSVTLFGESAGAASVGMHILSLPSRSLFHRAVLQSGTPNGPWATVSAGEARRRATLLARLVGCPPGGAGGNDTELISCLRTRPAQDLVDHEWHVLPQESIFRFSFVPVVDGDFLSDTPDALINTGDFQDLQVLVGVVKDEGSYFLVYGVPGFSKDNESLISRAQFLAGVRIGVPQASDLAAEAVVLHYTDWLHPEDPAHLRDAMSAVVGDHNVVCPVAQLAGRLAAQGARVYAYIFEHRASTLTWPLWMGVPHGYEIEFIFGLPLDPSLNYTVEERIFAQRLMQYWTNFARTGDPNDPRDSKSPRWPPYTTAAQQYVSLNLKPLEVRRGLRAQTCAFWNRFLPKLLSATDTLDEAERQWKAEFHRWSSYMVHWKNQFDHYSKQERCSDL
pIC50: −log10 of the molar value. Where a name gives a salt, the structure may show the parent alone.
measuredProperty: pIC50

[[record]]
compound = "COc1cc2c(cc1OC)C(=O)C(F)(CC1CCN(Cc3ccccc3)CC1)C2 (stereo not shown) [Compound 1, hydrochloride]"
measuredproperty = "pIC50"
testvalue = 8.89


# credit: patent US6277866A
